Recorded values, source the supplement of paper PMC9112550.

Test system: Escherichia coli TOP10
Test: shrunken log2 fold change of peptide-encoding DNA abundance (4.5 h post-induction vs induction); higher = less antimicrobial activity (less host growth inhibition)
Conditions: time post-induction: 4.5 h; library: site-saturation at positions 5, 18, 19, 20

polymerSequence: RRIRPRPPRLPRPRPRPHSCPRP
shrunken log2 fold change: -0.11
--
polymerSequence: RRIRMRPPRLPRPRPRPTDDPRP
shrunken log2 fold change: 0.637
--
polymerSequence: RRIRSRPPRLPRPRPRPCIHPRP
shrunken log2 fold change: -1.37
--
polymerSequence: RRIRCRPPRLPRPRPRPSVCPRP
shrunken log2 fold change: 0.0114
--
polymerSequence: RRIRQRPPRLPRPRPRPTMCPRP
shrunken log2 fold change: -0.0814
--
polymerSequence: RRIRDRPPRLPRPRPRPLELPRP
shrunken log2 fold change: -0.014
--
polymerSequence: RRIRGRPPRLPRPRPRPFDVPRP
shrunken log2 fold change: 0.147
--
polymerSequence: RRIRHRPPRLPRPRPRPRIPPRP
shrunken log2 fold change: -0.32
--
polymerSequence: RRIRGRPPRLPRPRPRPICNPRP
shrunken log2 fold change: 0.645
--
polymerSequence: RRIRGRPPRLPRPRPRPMCSPRP
shrunken log2 fold change: 0.606
--
polymerSequence: RRIRERPPRLPRPRPRPMQGPRP
shrunken log2 fold change: -0.0783
--
polymerSequence: RRIRGRPPRLPRPRPRPLTQPRP
shrunken log2 fold change: 0.594
--
polymerSequence: RRIRYRPPRLPRPRPRPPSNPRP
shrunken log2 fold change: -0.266
--
polymerSequence: RRIRERPPRLPRPRPRPSCYPRP
shrunken log2 fold change: -0.941
--
polymerSequence: RRIRWRPPRLPRPRPRPFNKPRP
shrunken log2 fold change: -0.441
--
polymerSequence: RRIRPRPPRLPRPRPRPMSEPRP
shrunken log2 fold change: -0.327
--
polymerSequence: RRIRKRPPRLPRPRPRPCFEPRP
shrunken log2 fold change: 0.336
--
polymerSequence: RRIRIRPPRLPRPRPRPPSEPRP
shrunken log2 fold change: -0.118
--
polymerSequence: RRIRIRPPRLPRPRPRPFNLPRP
shrunken log2 fold change: -0.496
--
polymerSequence: RRIRARPPRLPRPRPRPIVLPRP
shrunken log2 fold change: -0.121
--
polymerSequence: RRIRRRPPRLPRPRPRPNTFPRP
shrunken log2 fold change: 0.085
--
polymerSequence: RRIRQRPPRLPRPRPRPHQKPRP
shrunken log2 fold change: -0.0904
--
polymerSequence: RRIRPRPPRLPRPRPRPFCTPRP
shrunken log2 fold change: -0.00789
--
polymerSequence: RRIRFRPPRLPRPRPRPFQLPRP
shrunken log2 fold change: -0.0751
--
polymerSequence: RRIRCRPPRLPRPRPRPEQWPRP
shrunken log2 fold change: 0.594
--
polymerSequence: RRIRPRPPRLPRPRPRPLITPRP
shrunken log2 fold change: -0.357
--
polymerSequence: RRIRTRPPRLPRPRPRPMNRPRP
shrunken log2 fold change: -0.0804
--
polymerSequence: RRIRDRPPRLPRPRPRPELFPRP
shrunken log2 fold change: 0.184

---

Tested on: Escherichia coli TOP10
Assay: shrunken log2 fold change of peptide-encoding DNA abundance (4.5 h post-induction vs induction); higher = less antimicrobial activity (less host growth inhibition)
Details: time post-induction: 4.5 h; library: site-saturation at positions 5, 18, 19, 20
As shown below, each of these sequences has a reported shrunken log2 fold change value.

polymerSequence: RRIRKRPPRLPRPRPRPTRFPRP
testTarget: Escherichia coli TOP10
shrunken log2 fold change: 0.436

polymerSequence: RRIRHRPPRLPRPRPRPLALPRP
testTarget: Escherichia coli TOP10
shrunken log2 fold change: -0.563

polymerSequence: RRIRARPPRLPRPRPRPCWPPRP
testTarget: Escherichia coli TOP10
shrunken log2 fold change: 0.162

---

# key: entry, value: shrunken log2 fold change
Tested on: Escherichia coli TOP10
Assay: shrunken log2 fold change of peptide-encoding DNA abundance (4.5 h post-induction vs induction); higher = less antimicrobial activity (less host growth inhibition)
Settings: time post-induction: 4.5 h; library: site-saturation at positions 5, 18, 19, 20

polymerSequence: RRIRERPPRLPRPRPRPEGIPRP
testTarget: Escherichia coli TOP10
shrunken log2 fold change: 0.0236
--
polymerSequence: RRIRVRPPRLPRPRPRPSCHPRP
testTarget: Escherichia coli TOP10
shrunken log2 fold change: 0.292
--
polymerSequence: RRIRLRPPRLPRPRPRPPNFPRP
testTarget: Escherichia coli TOP10
shrunken log2 fold change: 0.0275
--
polymerSequence: RRIRWRPPRLPRPRPRPIANPRP
testTarget: Escherichia coli TOP10
shrunken log2 fold change: 0.00334

---

Tested on: Escherichia coli TOP10
Assay: shrunken log2 fold change of peptide-encoding DNA abundance (4.5 h post-induction vs induction); higher = less antimicrobial activity (less host growth inhibition)
Settings: time post-induction: 4.5 h; library: site-saturation at positions 5, 18, 19, 20
Reported shrunken log2 fold change values for a set of sequences

polymerSequence: RRIRGRPPRLPRPRPRPSQNPRP
testTarget: Escherichia coli TOP10
shrunken log2 fold change: 0.229
--
polymerSequence: RRIRQRPPRLPRPRPRPWYQPRP
testTarget: Escherichia coli TOP10
shrunken log2 fold change: -0.000894
--
polymerSequence: RRIRVRPPRLPRPRPRPRYHPRP
testTarget: Escherichia coli TOP10
shrunken log2 fold change: -0.36
--
polymerSequence: RRIRFRPPRLPRPRPRPCRDPRP
testTarget: Escherichia coli TOP10
shrunken log2 fold change: -0.274
--
polymerSequence: RRIRHRPPRLPRPRPRPNITPRP
testTarget: Escherichia coli TOP10
shrunken log2 fold change: -0.489
--
polymerSequence: RRIRPRPPRLPRPRPRPIPTPRP
testTarget: Escherichia coli TOP10
shrunken log2 fold change: 0.00223
--
polymerSequence: RRIRSRPPRLPRPRPRPHGFPRP
testTarget: Escherichia coli TOP10
shrunken log2 fold change: -0.0309
--
polymerSequence: RRIRYRPPRLPRPRPRPCGYPRP
testTarget: Escherichia coli TOP10
shrunken log2 fold change: -0.467
--
polymerSequence: RRIRLRPPRLPRPRPRPRMFPRP
testTarget: Escherichia coli TOP10
shrunken log2 fold change: -0.0408
--
polymerSequence: RRIRARPPRLPRPRPRPMEIPRP
testTarget: Escherichia coli TOP10
shrunken log2 fold change: 0.146
--
polymerSequence: RRIRNRPPRLPRPRPRPWFYPRP
testTarget: Escherichia coli TOP10
shrunken log2 fold change: -0.154
--
polymerSequence: RRIRQRPPRLPRPRPRPAEWPRP
testTarget: Escherichia coli TOP10
shrunken log2 fold change: -0.357
--
polymerSequence: RRIRERPPRLPRPRPRPQYSPRP
testTarget: Escherichia coli TOP10
shrunken log2 fold change: -0.0489
--
polymerSequence: RRIRFRPPRLPRPRPRPTEIPRP
testTarget: Escherichia coli TOP10
shrunken log2 fold change: -0.413
--
polymerSequence: RRIRFRPPRLPRPRPRPHFQPRP
testTarget: Escherichia coli TOP10
shrunken log2 fold change: -0.261
--
polymerSequence: RRIRSRPPRLPRPRPRPYGMPRP
testTarget: Escherichia coli TOP10
shrunken log2 fold change: -0.0661
--
polymerSequence: RRIRFRPPRLPRPRPRPHLPPRP
testTarget: Escherichia coli TOP10
shrunken log2 fold change: -0.0118
--
polymerSequence: RRIRYRPPRLPRPRPRPWMYPRP
testTarget: Escherichia coli TOP10
shrunken log2 fold change: -0.00277
--
polymerSequence: RRIRIRPPRLPRPRPRPVDSPRP
testTarget: Escherichia coli TOP10
shrunken log2 fold change: 0.0804
--
polymerSequence: RRIRFRPPRLPRPRPRPNLPPRP
testTarget: Escherichia coli TOP10
shrunken log2 fold change: -0.454
--
polymerSequence: RRIRFRPPRLPRPRPRPEPNPRP
testTarget: Escherichia coli TOP10
shrunken log2 fold change: 0.256
--
polymerSequence: RRIRNRPPRLPRPRPRPKPMPRP
testTarget: Escherichia coli TOP10
shrunken log2 fold change: 0.375
--
polymerSequence: RRIRSRPPRLPRPRPRPAEFPRP
testTarget: Escherichia coli TOP10
shrunken log2 fold change: 0.00621
--
polymerSequence: RRIRERPPRLPRPRPRPAGGPRP
testTarget: Escherichia coli TOP10
shrunken log2 fold change: 0.2

---

System: Escherichia coli TOP10;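 note: peptides expressed intracellularly from a pBAD plasmid library in pooled LB shake-flask culture, induced with 0.3% L-arabinose, DNA abundance read by NGS, three biological replicates, DESeq2 with apeglm shrinkage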
Test: shrunken log2 fold change of peptide-encoding DNA abundance (4.5 h post-induction vs induction); higher = less antimicrobial activity (less host growth inhibition)
Conditions: time post-induction: 4.5 h; library: site-saturation at positions 5, 18, 19, 20
# shrunken log2 fold change annotations

polymerSequence: RRIRKRPPRLPRPRPRPQRWPRP
shrunken log2 fold change: 0.0222

polymerSequence: RRIRQRPPRLPRPRPRPEKIPRP
shrunken log2 fold change: 2.55

polymerSequence: RRIRCRPPRLPRPRPRPKTYPRP
shrunken log2 fold change: -0.48

polymerSequence: RRIRVRPPRLPRPRPRPRAVPRP
shrunken log2 fold change: 0.314

polymerSequence: RRIRHRPPRLPRPRPRPSAGPRP
shrunken log2 fold change: -0.182

polymerSequence: RRIRERPPRLPRPRPRPRKEPRP
shrunken log2 fold change: -0.0305

polymerSequence: RRIRIRPPRLPRPRPRPGGTPRP
shrunken log2 fold change: -0.439

polymerSequence: RRIRYRPPRLPRPRPRPYEHPRP
shrunken log2 fold change: -0.0505

polymerSequence: RRIRARPPRLPRPRPRPDAKPRP
shrunken log2 fold change: 0.338

polymerSequence: RRIRKRPPRLPRPRPRPDKNPRP
shrunken log2 fold change: 0.159

polymerSequence: RRIRRRPPRLPRPRPRPGQYPRP
shrunken log2 fold change: -0.16

polymerSequence: RRIRWRPPRLPRPRPRPIDYPRP
shrunken log2 fold change: -0.235

polymerSequence: RRIRDRPPRLPRPRPRPNLSPRP
shrunken log2 fold change: -0.115

polymerSequence: RRIRIRPPRLPRPRPRPEMTPRP
shrunken log2 fold change: 0.104

polymerSequence: RRIRRRPPRLPRPRPRPKDNPRP
shrunken log2 fold change: 0.0969

polymerSequence: RRIRMRPPRLPRPRPRPIADPRP
shrunken log2 fold change: -0.00229

polymerSequence: RRIRYRPPRLPRPRPRPWPRPRP
shrunken log2 fold change: 0.209

polymerSequence: RRIRARPPRLPRPRPRPAMKPRP
shrunken log2 fold change: 0.0417

polymerSequence: RRIRRRPPRLPRPRPRPYNPPRP
shrunken log2 fold change: -0.348

polymerSequence: RRIRTRPPRLPRPRPRPYDAPRP
shrunken log2 fold change: 0.0888

polymerSequence: RRIRYRPPRLPRPRPRPKHFPRP
shrunken log2 fold change: -0.327

polymerSequence: RRIRWRPPRLPRPRPRPNTHPRP
shrunken log2 fold change: -0.231

polymerSequence: RRIRRRPPRLPRPRPRPFTPPRP
shrunken log2 fold change: -0.0158

polymerSequence: RRIRGRPPRLPRPRPRPGRVPRP
shrunken log2 fold change: 0.554

polymerSequence: RRIRARPPRLPRPRPRPAMRPRP
shrunken log2 fold change: 0.825

polymerSequence: RRIRERPPRLPRPRPRPMLHPRP
shrunken log2 fold change: -0.542

polymerSequence: RRIRCRPPRLPRPRPRPRGCPRP
shrunken log2 fold change: 0.395

polymerSequence: RRIRMRPPRLPRPRPRPWYYPRP
shrunken log2 fold change: -0.0257

polymerSequence: RRIRGRPPRLPRPRPRPYVGPRP
shrunken log2 fold change: 0.0053

polymerSequence: RRIRGRPPRLPRPRPRPGRHPRP
shrunken log2 fold change: 0.314

polymerSequence: RRIRDRPPRLPRPRPRPRRGPRP
shrunken log2 fold change: 0.365

polymerSequence: RRIRVRPPRLPRPRPRPKVVPRP
shrunken log2 fold change: 0.174

polymerSequence: RRIRNRPPRLPRPRPRPFCDPRP
shrunken log2 fold change: -0.133

polymerSequence: RRIRHRPPRLPRPRPRPQYMPRP
shrunken log2 fold change: -0.252

polymerSequence: RRIRMRPPRLPRPRPRPRVTPRP
shrunken log2 fold change: 0.467

polymerSequence: RRIRRRPPRLPRPRPRPSQRPRP
shrunken log2 fold change: 0.0863

polymerSequence: RRIRRRPPRLPRPRPRPSDHPRP
shrunken log2 fold change: -0.0811

polymerSequence: RRIRARPPRLPRPRPRPPAPPRP
shrunken log2 fold change: 1.19

polymerSequence: RRIRNRPPRLPRPRPRPNYMPRP
shrunken log2 fold change: -0.784

polymerSequence: RRIRIRPPRLPRPRPRPAFMPRP
shrunken log2 fold change: -0.3

polymerSequence: RRIRPRPPRLPRPRPRPKLEPRP
shrunken log2 fold change: 0.121

polymerSequence: RRIRLRPPRLPRPRPRPGGPPRP
shrunken log2 fold change: 1.36

polymerSequence: RRIRVRPPRLPRPRPRPVETPRP
shrunken log2 fold change: 0.0754

polymerSequence: RRIRTRPPRLPRPRPRPFIGPRP
shrunken log2 fold change: -0.353

polymerSequence: RRIRDRPPRLPRPRPRPMWVPRP
shrunken log2 fold change: 0.179

polymerSequence: RRIRQRPPRLPRPRPRPVSHPRP
shrunken log2 fold change: -0.0425

polymerSequence: RRIRCRPPRLPRPRPRPNEQPRP
shrunken log2 fold change: 0.256

polymerSequence: RRIRRRPPRLPRPRPRPGKVPRP
shrunken log2 fold change: -0.037
